Taken from patent US8329675B2.

As shown below, each of these molecules has a reported pKi value.
- test.target: human FAAH (Homo sapiens)
- Construct: host or cells: COS-7 cells, transient transfection; 13,000 g membrane fraction solubilised in 1% Triton X-100
- Sequence (O00519 whole entry): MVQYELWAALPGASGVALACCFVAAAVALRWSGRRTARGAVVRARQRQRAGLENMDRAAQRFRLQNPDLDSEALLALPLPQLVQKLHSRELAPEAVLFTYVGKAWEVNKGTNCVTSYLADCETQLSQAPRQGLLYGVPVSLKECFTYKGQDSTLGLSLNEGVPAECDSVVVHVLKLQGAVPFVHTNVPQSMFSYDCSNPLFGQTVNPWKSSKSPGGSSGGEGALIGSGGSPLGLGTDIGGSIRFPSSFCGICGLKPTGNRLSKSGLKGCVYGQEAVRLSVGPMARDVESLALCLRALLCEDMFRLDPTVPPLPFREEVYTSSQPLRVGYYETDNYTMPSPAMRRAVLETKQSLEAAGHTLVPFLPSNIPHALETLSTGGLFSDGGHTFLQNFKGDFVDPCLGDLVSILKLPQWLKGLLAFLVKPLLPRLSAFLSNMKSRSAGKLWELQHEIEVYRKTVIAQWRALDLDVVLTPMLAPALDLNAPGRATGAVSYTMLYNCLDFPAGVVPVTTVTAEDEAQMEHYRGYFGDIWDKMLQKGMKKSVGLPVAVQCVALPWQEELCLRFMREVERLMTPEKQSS
- procedure.summary: Human FAAH biochemical inhibition assay (AMC arachidonoyl amide fluorescence)
- run.parameters: Table 1, human FAAH (no asterisk); read-out: Activity (Ki)
pKi: −log10 of the molar value.

Cc1ccc(B(O)O)cc1Cl = 6.00 to 8.00
OB(O)c1ccccc1OC(F)(F)F = 6.00 to 8.00

Form field: reported pKi of CC(C)c1ccc(B(O)O)cc1 7.00 to 8.00

Form field: reported pKi of OB(O)c1ccc2cc[nH]c2c1 < 6.00

Form field: reported pKi of OB(O)c1cc(F)cc(C(F)(F)F)c1 7.00 to 8.00

Form field: reported pKi of CC1(C)OB(c2cccc3cc[nH]c23)OC1(C)C < 6.00

Form field: reported pKi of OB(O)c1cccc(OC(F)(F)F)c1 6.00 to 8.00

Form field: reported pKi of COc1ccc(CNC(=O)Nc2ccc(B3OC(C)(C)C(C)(C)O3)cc2)cc1 6.00 to 8.00

Form field: reported pKi of OB(O)c1cccnc1 < 6.00

Form field: reported pKi of OB(O)c1ccc(OCc2ccc(F)cc2)c(Cl)c1 > 8.00

Form field: reported pKi of OB(O)c1ccc2cc(OCc3ccccc3)ccc2c1 > 8.00

Form field: reported pKi of O=C(c1ccc(Oc2ccccc2)cc1)C(F)(F)F < 6.00

---

As shown below, each of these compounds has a reported pKi value.
- test.target: human FAAH (Homo sapiens)
- Construct: host or cells: COS-7 cells, transient transfection; 13,000 g membrane fraction solubilised in 1% Triton X-100
- procedure.summary: Human FAAH biochemical inhibition assay (AMC arachidonoyl amide fluorescence)
- run.parameters: Table 2, human FAAH (no asterisk); read-out: Activity (Ki)
pKi: −log10 of the molar value.

O=C(N[C@@H](COc1ccc(B(O)O)c(F)c1)Cc1ccccc1)c1ccccc1 = 6.00 to 8.00
CC(C)OC(=O)c1cccc(Oc2ccc(B(O)O)cc2)c1 = > 8.00

Form field: reported pKi of C[C@H](COc1ccc(B(O)O)c(F)c1)c1ccccc1 > 8.00

Form field: reported pKi of OB(O)c1ccc(Oc2cccc(N3CCCC3)c2)cc1F 7.00 to 8.00

Form field: reported pKi of OB(O)c1ccc(CNc2ccccc2)cc1 > 8.00

Form field: reported pKi of Cc1cc(OCc2ccc(B(O)O)cc2)ccc1Cl > 8.00

Form field: reported pKi of CN(C)c1cc(Oc2ccc(B(O)O)cc2)cc(Oc2cccc(F)c2)c1 < 6.00

Form field: reported pKi of OB(O)c1cccc(OCCc2ccccc2)c1 7.00 to 8.00

---

As shown below, each of these compounds has a reported pKi value.
- test.target: human FAAH (Homo sapiens)
- Construct: host or cells: COS-7 cells, transient transfection; 13,000 g membrane fraction solubilised in 1% Triton X-100
- procedure.summary: Human FAAH biochemical inhibition assay (AMC arachidonoyl amide fluorescence)
- run.parameters: Table 2, human FAAH (no asterisk); read-out: Activity (Ki)
pKi: −log10 of the molar value.

Study these solved cases before continuing.
Cc1cc(CSc2ccc(B(O)O)c(F)c2)ccc1F [II-199] = > 8.00
CC1(C)OB(c2ccc(OCc3cncs3)cc2F)OC1(C)C [II-174] = > 8.00
OB(O)c1ccc(CCOc2ccccc2)cc1 [II-117] = 7.00 to 8.00

Form field: reported pKi of CC1(C)OB(c2ccc(OCc3ccccn3)cc2F)OC1(C)C [II-176] > 8.00
